# Method Description: Rat PK study: concentration of compounds in large intestine tissue and plasma
# Format: in vivo
# Assay Context: male, SD, plasma, 3 mg/kg oral, read-out: Plasma: plasma test compound concentration after 8 hours
Measurement Name: concentration at 8 h

> print(dat)
                              smiles.string  result.value
1  COc1ccc(Cn2cnc3nc(-n4cc(C(=O)O)cn4)[nH]c(=O)c32)cc1     < 1 ng/mL

###

# Method Description: Rat PK study: concentration of compounds in large intestine tissue and plasma
# Type: in vivo
# Assay Context: male, SD, large intestine tissue (distal), 3 mg/kg oral, read-out: Colon: concentration in the large intestine tissue after 8 hours
Measurement Name: concentration at 8 h (ng/g)

> print(dat)
                              smiles.string      measurement.name  result.value
1  COc1ccc(Cn2cnc3nc(-n4cc(C(=O)O)cn4)[nH]c(=O)c32)cc1  concentration at 8 h           209

###

# Method Description: Solid stability test
# Type: physicochemical
# Assay Context: open condition at 40° C., 1 month; appearance White powder
Measurement Name: Properties

> print(dat)
                                   molecule  result.value
1  COc1ccc(Cn2cnc3nc(-n4cc(C(=O)O)cn4)[nH]c(=O)c32)cc1 [Crystal form II of the compound 1]     no change
2  COc1ccc(Cn2cnc3nc(-n4cc(C(=O)O)cn4)[nH]c(=O)c32)cc1 [Crystal form IV of the compound 1]     no change
3  COc1ccc(Cn2cnc3nc(-n4cc(C(=O)O)cn4)[nH]c(=O)c32)cc1 [Crystal form I of the compound 1]     no change
4  COc1ccc(Cn2cnc3nc(-n4cc(C(=O)O)cn4)[nH]c(=O)c32)cc1 [Crystal form III of the compound 1]     no change

###

# Method Description: Solid stability test
# Format: physicochemical
# Assay Context: open condition at 40° C., 1 month, HPLC area normalization
Measurement Name: Amount of the mass change of the compound 1 (%)

> print(dat)
                                   molecule  result.value
1  COc1ccc(Cn2cnc3nc(-n4cc(C(=O)O)cn4)[nH]c(=O)c32)cc1 [Crystal form I of the compound 1]         −0.05
2  COc1ccc(Cn2cnc3nc(-n4cc(C(=O)O)cn4)[nH]c(=O)c32)cc1 [Crystal form II of the compound 1]          0.03
3  COc1ccc(Cn2cnc3nc(-n4cc(C(=O)O)cn4)[nH]c(=O)c32)cc1 [Crystal form III of the compound 1]          0.00
4  COc1ccc(Cn2cnc3nc(-n4cc(C(=O)O)cn4)[nH]c(=O)c32)cc1 [Crystal form IV of the compound 1]          0.00

Values from patent US20230183241A1
